system: RAW264.7; test: Cytotoxicity against mouse RAW264.7 cells assessed as reduction in cell viability at 10 uM incubated for 24 hrs by CCK-8 assay; assay type: toxicity, cell-based; settings: raw264.7, 24 h
Value type: Activity

Sample records with Activity:
{"columns": ["Structure as smiles", "Reported"],
 "data": [
  ["CN(/C=C\\c1ccccc1)C(=O)c1nc(-c2ccccc2Cl)n(-c2ccccc2)n1", "Non-toxic"],
  ["CN(/C=C\\c1ccccc1)C(=O)c1nc(-c2cccc3ccccc23)n(-c2ccccc2)n1", "Non-toxic"],
  ["CN(/C=C\\c1ccccc1)C(=O)c1nc(-c2ccc3ccccc3c2)n(-c2ccccc2)n1", "Non-toxic"],
  ["CN(/C=C\\c1ccccc1)C(=O)c1nc(-c2ccc(C(F)(F)F)cc2)n(-c2ccccc2)n1", "Non-toxic"],
  ["CN(/C=C\\c1ccccc1)C(=O)c1nc(-c2ccco2)n(-c2ccccc2)n1", "Non-toxic"]
]}

Lab note: need Activity for CC(C)c1nc(C(=O)N(C)/C=C\c2ccccc2)nn1-c1ccccc1 on RAW264.7, anyone have it?
Non-toxic

Lab note: need Activity for Cc1nc(C(=O)N(C)/C=C\c2ccccc2)nn1-c1ccccc1 on RAW264.7, anyone have it?
Non-toxic

Lab note: need Activity for CN(/C=C\c1ccccc1)C(=O)c1nc(-c2ccccc2)n(-c2ccccc2)n1 on RAW264.7, anyone have it?
Non-toxic

Lab note: need Activity for Cc1cc(C)c(-c2nc(C(=O)N(C)/C=C\c3ccccc3)nn2-c2ccccc2)c(C)c1 on RAW264.7, anyone have it?
Non-toxic

Lab note: need Activity for CN(/C=C\c1ccccc1)C(=O)c1nc(-c2cccc(Cl)c2)n(-c2ccccc2)n1 on RAW264.7, anyone have it?
Non-toxic

Lab note: need Activity for CN(/C=C\c1ccccc1)C(=O)c1nc(-c2ccc(F)cc2)n(-c2ccccc2)n1 on RAW264.7, anyone have it?
Non-toxic

Lab note: need Activity for Cc1ccccc1-c1nc(C(=O)N(C)/C=C\c2ccccc2)nn1-c1ccccc1 on RAW264.7, anyone have it?
Non-toxic

Lab note: need Activity for CN(/C=C\c1ccccc1)C(=O)c1nc(CC(C)(C)C)n(-c2ccccc2)n1 on RAW264.7, anyone have it?
Non-toxic

Lab note: need Activity for CN(/C=C\c1ccccc1)C(=O)c1nc(-c2cccs2)n(-c2ccccc2)n1 on RAW264.7, anyone have it?
Non-toxic

Lab note: need Activity for CCc1nc(C(=O)N(C)/C=C\c2ccccc2)nn1-c1ccccc1 on RAW264.7, anyone have it?
Non-toxic

Lab note: need Activity for Cc1ccc(-c2nc(C(=O)N(C)/C=C\c3ccccc3)nn2-c2ccccc2)cc1 on RAW264.7, anyone have it?
Non-toxic

Lab note: need Activity for CN(/C=C\c1ccccc1)C(=O)c1nc(-c2ccc(Br)cc2)n(-c2ccccc2)n1 on RAW264.7, anyone have it?
Non-toxic

Lab note: need Activity for CN(/C=C\c1ccccc1)C(=O)c1ncn(-c2ccccc2)n1 on RAW264.7, anyone have it?
Non-toxic

Lab note: need Activity for CN(/C=C\c1ccccc1)C(=O)c1nc(C2CCCCC2)n(-c2ccccc2)n1 on RAW264.7, anyone have it?
Non-toxic

Lab note: need Activity for CN(/C=C\c1ccccc1)C(=O)c1nc(-c2ccc(Cl)cc2)n(-c2ccccc2)n1 on RAW264.7, anyone have it?
Non-toxic

Lab note: need Activity for CCCc1nc(C(=O)N(C)/C=C\c2ccccc2)nn1-c1ccccc1 on RAW264.7, anyone have it?
Non-toxic

Lab note: need Activity for Cc1cccc(-c2nc(C(=O)N(C)/C=C\c3ccccc3)nn2-c2ccccc2)c1 on RAW264.7, anyone have it?
Non-toxic
